# System: G. lamblia WBC6 trophozoites
# METHOD_NOTES: G. lamblia trophozoite proliferation assay (resazurin)
# Type: cell-based, Giardia lamblia
# CONDITION_DETAILS: G. lamblia WBC6 trophozoites, 72 h anaerobic culture; read-out: Giardia cells EC50
pEC50: −log10 of the molar value.
Reported pEC50 by item:

INSERT INTO assay_data (compound, endpoint_value) VALUES
  ('CCCCOc1cc(CC2CNC(=O)N2)ccc1OC (stereo not shown) [Ro20-1724]', '< 4.30'),
  ('COc1cc2ncnc(N3CC[C@@H](Oc4cnc5ccccc5n4)C3)c2cc1OC [NEU28]', 4.51),
  ('C[C@H](Cc1nc2c(cnn2-c2ccccc2Cl)c(=O)[nH]1)C(F)(F)F [BAY 73–6691]', '< 4.30'),
  ('COCc1nc2c([nH]1)c(=O)n(C)c(=O)n2CC(C)C [8''-MM-IBMX, 8-methoxymethyl-IBMX]', '< 4.30'),
  ('COc1ccc(C2=NN(C3CCCCCC3)C(=O)[C@@H]3CC=CC[C@H]23)cc1OCCCCOc1ccc(-c2nn[nH]n2)cc1 [NPD-001]', 5.16),
  ('CCCCCC[C@@H]([C@@H](C)O)n1cnc2c(N)ncnc21 (racemic) [EHNA, erythro-9-(2-hydroxy-3-nonyl)adenine]', '< 4.30');

// next entry
// pEC50 lookup, key: COc1ccc(Cc2nn3c([C@@H](CCCc4ccccc4)[C@@H](C)O)nc(C)c3c(=O)[nH]2)cc1OC [BAY 60–7550]
~4.30
